MEASURED ON: panel of 255 wild-type kinases (Homo sapiens, UniProt P54756)
Sequence (P54756 25-1037): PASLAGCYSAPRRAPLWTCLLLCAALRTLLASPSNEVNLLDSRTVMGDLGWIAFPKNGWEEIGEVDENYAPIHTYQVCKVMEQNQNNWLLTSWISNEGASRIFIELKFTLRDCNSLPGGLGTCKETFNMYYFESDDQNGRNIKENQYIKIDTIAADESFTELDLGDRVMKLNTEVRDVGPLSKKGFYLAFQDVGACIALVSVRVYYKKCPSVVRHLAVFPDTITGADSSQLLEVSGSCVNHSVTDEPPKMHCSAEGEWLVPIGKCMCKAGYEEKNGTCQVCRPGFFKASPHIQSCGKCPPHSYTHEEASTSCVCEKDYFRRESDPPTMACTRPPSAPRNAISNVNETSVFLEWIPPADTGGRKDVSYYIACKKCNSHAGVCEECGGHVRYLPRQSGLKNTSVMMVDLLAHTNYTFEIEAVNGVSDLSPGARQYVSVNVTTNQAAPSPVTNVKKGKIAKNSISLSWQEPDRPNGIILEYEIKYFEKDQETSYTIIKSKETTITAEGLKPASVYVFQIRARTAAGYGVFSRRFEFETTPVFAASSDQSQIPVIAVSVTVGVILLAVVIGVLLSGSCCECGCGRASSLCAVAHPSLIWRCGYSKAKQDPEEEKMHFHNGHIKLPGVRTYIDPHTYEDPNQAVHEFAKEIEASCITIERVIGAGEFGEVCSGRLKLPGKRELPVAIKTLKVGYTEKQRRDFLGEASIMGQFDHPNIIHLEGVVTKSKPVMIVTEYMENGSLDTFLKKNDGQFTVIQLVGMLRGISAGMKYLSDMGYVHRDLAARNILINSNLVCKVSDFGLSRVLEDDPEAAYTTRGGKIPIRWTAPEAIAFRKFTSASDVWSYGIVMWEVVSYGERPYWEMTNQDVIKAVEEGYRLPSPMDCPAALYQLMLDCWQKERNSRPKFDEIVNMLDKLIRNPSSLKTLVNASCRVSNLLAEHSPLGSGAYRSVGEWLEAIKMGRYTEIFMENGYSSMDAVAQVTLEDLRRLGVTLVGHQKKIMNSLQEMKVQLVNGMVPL
PROTOCOL NOTES: Kinase panel profiling at 1 µmol/L (MSA or IMAP), percentage inhibition
Format: biochemical
STATED CONDITIONS: kinase EPHA5; 1 µmol/L single concentration; read-out: %-inhibition at 1 µmol/L, EPHA5
Attribute: inhibition at 1 µM

{"ENTRY SMILES": "C=CC(=O)N1CCC([C@@H]2CCNc3c(C(N)=O)c(-c4ccc(Oc5ccccc5)cc4)nn32)CC1", "MEASURED ON": "panel of 255 wild-type kinases (Homo sapiens, UniProt P54756)", "inhibition at 1 µM": "0.0392%"}
{"ENTRY SMILES": "Cn1cc(-c2cc3c(N4CCN(c5ncc([C@@](C)(N)c6ccc(F)cc6)cn5)CC4)ncnn3c2)cn1", "MEASURED ON": "panel of 255 wild-type kinases (Homo sapiens, UniProt P54756)", "inhibition at 1 µM": "41%"}
{"ENTRY SMILES": "C[C@H]1Oc2cc(cnc2N)-c2c(nn(C)c2C#N)CN(C)C(=O)c2ccc(F)cc21", "MEASURED ON": "panel of 255 wild-type kinases (Homo sapiens, UniProt P54756)", "inhibition at 1 µM": "38%"}
{"ENTRY SMILES": "Cc1cc(Nc2ncnc3ccc(NC4=NC(C)(C)CO4)cc23)ccc1Oc1ccn2ncnc2c1", "MEASURED ON": "panel of 255 wild-type kinases (Homo sapiens, UniProt P54756)", "inhibition at 1 µM": "-13%"}

Per the record, CO[C@]1(C(=O)N[C@@H](C)c2ccc(-n3cc(F)cn3)nc2)CC[C@H](c2nc(C)cc(Nc3cc(C)[nH]n3)n2)CC1 has inhibition at 1 µM of 74%

According to the records, this compound O=C(Nc1cnn2ccc(N3CCC[C@@H]3c3cc(F)ccc3F)nc12)N1CC[C@H](O)C1 displays inhibition at 1 µM of -0.0881%

Lab note: measured inhibition at 1 µM of CN1CCN(c2ccc(C(=O)Nc3n[nH]c4ccc(Cc5cc(F)cc(F)c5)cc34)c(NC3CCOCC3)c2)CC1 was 53%

compound Cn1cnc2c(F)c(Nc3ccc(Br)cc3F)c(C(=O)NOCCO)cc21 , inhibition at 1 µM observed: -2.36%

Noted for CCN1CCN(c2ccc(Nc3cc(N(C)C(=O)Nc4c(Cl)c(OC)cc(OC)c4Cl)ncn3)cc2)CC1 : its inhibition at 1 µM reads -8%

Data point: CCn1c(=O)c(-c2cc(NC(=O)Nc3ccccc3)c(F)cc2Br)cc2cnc(NC)cc21 ; inhibition at 1 µM = 100%
